The compounds listed here are annotated with their IC50.
assay: Antiproliferative activity against human vinblastine-resistant CEM/VBL100 cells overexpressing P-glycoprotein after 72 hrs by MTT assay; type: functional, cell-based; conditions: CEM/VBL100, 72 h
Answer with a number only, understood to be in µM.

Consider the reported IC50 for these compounds:
[
  {
    "smi": "CNc1nc(-c2cc(OC)c(OC)c(OC)c2)c(-c2ccc(OC)cc2)s1",
    "IC50 (µM)": 0.015
  },
  {
    "smi": "CCOc1ccc(-c2sc(NC)nc2-c2cc(OC)c(OC)c(OC)c2)cc1",
    "IC50 (µM)": 0.0012
  }
]

Name the recorded IC50 for `COc1cc(-c2nc(C)sc2-c2ccc3ccccc3c2)cc(OC)c1OC` .
0.088

* * *

assay: Antiproliferative activity against human taxol-resistant A549-T12 cells expressing tubulin mutant gene after 72 hrs by MTT assay; assay type: functional, cell-based; details: A549, 72 h
property_label: pIC50
Entry type: numeric. Quantity: pIC50, the -log10 of concentration in molar units.

Consider the reported pIC50 for these compounds:
[
  {
    "smi": "CNc1nc(-c2cc(OC)c(OC)c(OC)c2)c(-c2ccc(OC)cc2)s1",
    "pIC50": 6.90
  },
  {
    "smi": "CCOc1ccc(-c2sc(NC)nc2-c2cc(OC)c(OC)c(OC)c2)cc1",
    "pIC50": 7.67
  }
]

Note: attention shifts to another entry.
Name the recorded pIC50 for `COc1cc(-c2nc(C)sc2-c2ccc3ccccc3c2)cc(OC)c1OC` .
6.92

* * *

system: Jurkat; assay: Antiproliferative activity against human Jurkat cells after 72 hrs by MTT assay; format: functional, cell-based
pIC50: −log10 of the molar value.
We use 6 as the dividing line for pIC50: on or above the line is y, below is n.

[
  {
    "smi": "COc1cc(-c2nc(N(C)C)sc2-c2ccc(C(F)(F)F)cc2)cc(OC)c1OC",
    "label": "n"
  },
  {
    "smi": "COc1cc(-c2nc(C)sc2-c2ccc(C(F)(F)F)cc2)cc(OC)c1OC",
    "label": "n"
  },
  {
    "smi": "CCOc1ccc(-c2sc(NC)nc2-c2cc(OC)c(OC)c(OC)c2)cc1",
    "label": "y"
  },
  {
    "smi": "CNc1nc(-c2cc(OC)c(OC)c(OC)c2)c(-c2ccc(C(F)(F)F)cc2)s1",
    "label": "n"
  }
]

Then there is this molecule:
API: above_or_equal(metric=pIC50, cutoff=6) for item `COc1cc(-c2nc(C)sc2-c2ccc3ccccc3c2)cc(OC)c1OC`
y

Where these numbers come from: ChEMBL document CHEMBL2202972
